Test system: NK92 cells
test: Killing function of NK92 cells against tumor cells after compound treatment (LDH assay, initial screening)
Type: cell-based, Human
measurementContext: Homo sapiens; NK92 treated at 100 nM for 72 h; effector-to-target ratio 5:1, 5 h co-culture; LDH release; read-out: tumor killing rate by NK activation
cytotoxicity at 0.1 µM values for the compounds below.
A number alone suffices; assume %.

For this compound ( CC[C@H](C)/C=C(C)/C=C/C1=CC2=C(Cl)C(=O)[C@](C)(OC(C)=O)C(=O)C2=CN1[C@@H](C)C(=O)O ), measured cytotoxicity at 0.1 µM is 78.4

For this compound ( CC[C@H](C)/C=C(C)/C=C/C1=CC2=C(Cl)C(=O)[C@](C)(OC(C)=O)C(=O)C2=CN1CC(=O)O ), measured cytotoxicity at 0.1 µM is 6.12

For this compound ( C/C=C(\C)C(=O)C1=C2C3=CN([C@@H](Cc4c[nH]cn4)C(=O)O)C(/C=C/[C@@H](C)CC)=CC3=C(Cl)C(=O)[C@@]2(C)OC1=O ), measured cytotoxicity at 0.1 µM is 22.2
